From: ChEMBL document CHEMBL3044873

System: fenitrothion-detoxification activity by hydrolysis
PROCEDURE TEXT: Inhibition of fenitrothion-detoxification activities by hydrolysis in OP-resistant Chilo suppressalis Hata-f (rice stem borer) at 1x10'-5M (reference value: 0%)
Type: organism-based
APPLIED CONDITIONS: probe fenitrothion
VALUE TYPE: inhibition at 10 µM (%)
Please state the figure in %; there is no need to write the unit.

So what's the measured inhibition at 10 µM for this one? "Cc1cc(OC(=O)N(C)C)nc(N(C)C)n1" 66.7

====

System: fenitrothion-detoxification activity by binding protein
PROCEDURE TEXT: Inhibition of fenitrothion-detoxification activities by binding protein in OP-resistant Chilo suppressalis Hata-f (rice stem borer) at 1x10'-4M (reference value: 0%)
Type: organism-based
APPLIED CONDITIONS: in vivo, probe fenitrothion
VALUE TYPE: inhibition at 100 µM (%)
Please state the figure in %; there is no need to write the unit.

So what's the measured inhibition at 100 µM for this one? "Cc1cc(OC(=O)N(C)C)nc(N(C)C)n1" 78.4

====

Provide the reported fold change (FC) of each item.
Test system: Chilo suppressalis
PROCEDURE TEXT: Potentiation of pirimiphos-methyl-induced insecticidal activity against OP-resistant Chilo suppressalis Hata-f (rice stem borer) assessed as synergistic ratio at 1:1 pirimiphos-methyl to compound ratio relative to pirimiphos-methyl alone
Assay type: functional
Write no unit; give the number alone.

So what's the measured fold change (FC) for this one? "CSc1ccc(OC(=O)N(C)C)cc1C" 72

So what's the measured fold change (FC) for this one? "CCN(CC)c1nc(C)cc(OC(=O)N(C)C)n1" 86

So what's the measured fold change (FC) for this one? "CN(C)C(=O)Oc1cc(-c2ccccc2)on1" 67

So what's the measured fold change (FC) for this one? "Cc1cc(OC(=O)N(C)C)nc(N(C)C)n1" 234

So what's the measured fold change (FC) for this one? "Cc1cc(OC(=O)N(C)C)no1" 90

So what's the measured fold change (FC) for this one? "CNc1nc(C)cc(OC(=O)N(C)C)n1" 129

So what's the measured fold change (FC) for this one? "Cc1cc(OC(=O)N(C)C)ccc1[N+](=O)[O-]" 67

====

System: Chilo suppressalis
PROCEDURE TEXT: Potentiation of fenitrothion-induced insecticidal activity against OP-resistant Chilo suppressalis Hata-f (rice stem borer) assessed as synergistic ratio at 1:10 fenitrothion to compound ratio relative to fenitrothion alone
Assay type: functional
Provide the reported fold change (FC) of each item.
Write no unit; give the number alone.

So what's the measured fold change (FC) for this one? "CCNC(=O)Oc1ccc(Cl)c(C)c1" 1.2

So what's the measured fold change (FC) for this one? "CN(C)C(=O)Sc1ccc([N+](=O)[O-])cc1" 1.9

So what's the measured fold change (FC) for this one? "CN(C)C(=O)OCc1ccc2c(c1)OCO2" 0.9

So what's the measured fold change (FC) for this one? Cc1ccc(OC(=O)N(C)C)cc1C [3,4-DIMETHYLPHENYL DIMETHYLCARBAMATE] 9.5

So what's the measured fold change (FC) for this one? Cc1ccc(OC(=O)N(C)C)cc1 [P-TOLYL DIMETHYLCARBAMATE] 8.1

So what's the measured fold change (FC) for this one? CCNC(=O)Oc1ccc([N+](=O)[O-])cc1 [4-NITROPHENYL ETHYLCARBAMATE] 1.2

So what's the measured fold change (FC) for this one? CC(C)c1cccc(OC(=O)N(C)C)c1 [3-ISOPROPYLPHENYL DIMETHYLCARBAMATE] 4.3

So what's the measured fold change (FC) for this one? "Cc1cc(OC(=O)N(C)C)ccc1[N+](=O)[O-]" 23

So what's the measured fold change (FC) for this one? CSc1ccc(OC(=O)N(C)C)cc1 [4-(METHYLTHIO)PHENYL DIMETHYLCARBAMATE] 16

So what's the measured fold change (FC) for this one? CCNC(=O)Oc1ccc(SC)cc1 [4-(METHYLTHIO)PHENYL ETHYLCARBAMATE] 1.4

So what's the measured fold change (FC) for this one? "CCN(CC)C(=O)Oc1ccc(SC)c(C)c1" 4.6

So what's the measured fold change (FC) for this one? "CN(C)C(=O)Oc1ccc(=O)n(-c2ccccc2)n1" 3.1

So what's the measured fold change (FC) for this one? CN(C)C(=O)SCc1ccccc1 [S-BENZYL DIMETHYLCARBAMOTHIOATE] 1

So what's the measured fold change (FC) for this one? "CCN(CC)C(=O)Oc1ccc([N+](=O)[O-])c(C)c1" 2.3

So what's the measured fold change (FC) for this one? "CN(C)C(=O)Oc1ccc([N+](=O)[O-])cc1Cl" 2.4

So what's the measured fold change (FC) for this one? CN(C)C(=O)Oc1cc(Cl)c(Cl)cc1Cl [2,4,5-TRICHLOROPHENYL DIMETHYLCARBAMATE] 5.8

So what's the measured fold change (FC) for this one? CN(C)C(=O)Oc1cccc(Cl)c1 [3-CHLOROPHENYL DIMETHYLCARBAMATE] 11

So what's the measured fold change (FC) for this one? "Cc1cc(OC(=S)N(C)C)ccc1Cl" 4.1

So what's the measured fold change (FC) for this one? "CSc1ccc(OC(=S)N(C)C)cc1C" 4.9

So what's the measured fold change (FC) for this one? "CC(C)OC(=O)c1ccc(OC(=O)N(C)C)cc1" 0.9

So what's the measured fold change (FC) for this one? CCC(C)c1ccccc1OC(=O)N(C)C (stereo not drawn) 1.8

So what's the measured fold change (FC) for this one? "CNC(=O)Oc1ccc(SC)c(C)c1" 0.8

So what's the measured fold change (FC) for this one? "CNc1nc(C)cc(OC(=O)N(C)C)n1" 21

So what's the measured fold change (FC) for this one? "CN(C)C(=S)Oc1ccc([N+](=O)[O-])cc1" 1.6

So what's the measured fold change (FC) for this one? CN(C)C(=O)Oc1ccc2ccccc2c1 [NAPHTHALEN-2-YL DIMETHYLCARBAMATE] 16

So what's the measured fold change (FC) for this one? "CN(C)C(=O)Oc1cccc2cccnc12" 4.6

So what's the measured fold change (FC) for this one? "CN(C)C(=O)Oc1ccccn1" 11

So what's the measured fold change (FC) for this one? COC(=O)c1ccc(OC(=O)N(C)C)cc1 [METHYL 4-(DIMETHYLCARBAMOYLOXY)BENZOATE] 6.3

So what's the measured fold change (FC) for this one? CCNC(=O)Oc1ccc(C#N)cc1 [4-CYANOPHENYL ETHYLCARBAMATE] 1.5

So what's the measured fold change (FC) for this one? "CSc1nc(C)cc(OC(=O)N(C)C)n1" 14

So what's the measured fold change (FC) for this one? "CSc1ccc(OC(=O)Nc2ccccc2)cc1C" 0.7

So what's the measured fold change (FC) for this one? "CN(C)C(=O)Oc1cccc2ccccc12" 13

So what's the measured fold change (FC) for this one? CCN(CC)C(=O)Oc1ccc(C#N)cc1 [4-CYANOPHENYL DIETHYLCARBAMATE] 1.7

So what's the measured fold change (FC) for this one? "CNC(=O)Oc1ccc([N+](=O)[O-])c(C)c1" 1.1

So what's the measured fold change (FC) for this one? Cc1ccccc1OC(=O)N(C)C [O-TOLYL DIMETHYLCARBAMATE] 4.3

So what's the measured fold change (FC) for this one? "Cc1cc(OC(=O)N(C)C)nc(N(C)C)n1" 38

So what's the measured fold change (FC) for this one? "CN(C)C(=S)Oc1ccc(C#N)cc1" 2.1

So what's the measured fold change (FC) for this one? CN(C)C(=O)Oc1ccccc1[N+](=O)[O-] [2-NITROPHENYL DIMETHYLCARBAMATE] 5.8

So what's the measured fold change (FC) for this one? CCN(CC)C(=O)Oc1ccc([N+](=O)[O-])cc1 [4-NITROPHENYL DIETHYLCARBAMATE] 3.3

So what's the measured fold change (FC) for this one? "COc1nc(C)cc(OC(=O)N(C)C)n1" 13

So what's the measured fold change (FC) for this one? O=C(Nc1ccccc1)Oc1ccc([N+](=O)[O-])cc1 [4-NITROPHENYL PHENYLCARBAMATE] 0.9

So what's the measured fold change (FC) for this one? CC(=O)c1ccc(OC(=O)N(C)C)cc1 [4-ACETYLPHENYL DIMETHYLCARBAMATE] 6.9

So what's the measured fold change (FC) for this one? COc1ccc(OC(=O)N(C)C)cc1 [4-METHOXYPHENYL DIMETHYLCARBAMATE] 3
